Test system: Pseudomonas fluorescens HPPD polypeptide (wild-type and mutants)
method_notes: Coupled HPPD activity assay: turnover and residual turnover in crude HPPD polypeptide extracts with and without Cmpd. 1
Type: biochemical
test_parameters: 100 μM Cmpd. 1, normalised to turnover without inhibitor
property_measured: Residual turnover [%] (%)
Note: unit % is implicit; provide only the numeric part.

molecule: SEQ ID NO:53 (protein, mutant HPPD polypeptide) MADLYENPMGLMGFEFIEFASPTPGTLEPIFEIMGFTKVATHRSKNVHLYRQGEINLILNNEPNSIASYFAAEHGPSVCGMAFRVKDSQKAYNRALELGAQPIHIDTGPMELNLPAIKGIGGAPLYLIDRFGEGSSIYDIDFVYLEGVERNPVGAGLKVIDHLTHNVYRGRMVYWANFYEKLFNFREARYFDIKGEYTGLTSKAMSAPDGMIRIPLNEESSKGAGQIEEFLMQFNGEGIQHVAFLTDDLVKTWDALKKIGMRFLTAPGDEYYEMLEGRLPDHGEPVDQLQARGILLDGSSVEGDKRLLLQIFSETLMGPVFFEFIQRKGDDGFGPHSFKVLFEQMERDQVRRGVLTAD
Residual turnover [%] / %: 73

Would you kindly look at the next entry?
Challenge: May I ask what Residual turnover [%] has been recorded for SEQ ID NO:24 (protein, mutant HPPD polypeptide) MADLYENPMGLMGFEFIEFASPTPGTLEPIFEIMGFTKVATHRSKNVHLYRQGEINLILNNEPNSIASYFAAEHGPSVCGMAFRVKDSQKAYNRALELGAQPIHIDTGPMELNLPAIKGIGGAPLYLIDRFGEGSSIYDIDFVYLEGVERNPVGAGLKVIDHLTHNVYRGRMVYWANFYEKLFNFREARYFDIKGEYTGLTSKAMSAPDGMIRIPLNEESSKGAGQIEEFLMQFNGEGIQHVAFLTDDLVKTWDALKKIGMRFMTAPGDEYYEMLEGRLPDHGEPVDQLQARGILLDGSSVEGDKRLLLQIFSERLMGPVFFEFIQRKGDDGFGPHSFKVLFESIERDQVRRGVLTAD ?
Response given: 54
